tested on: TFEB; test: TFEB nuclear translocation assay; format: cell-based; details: Homo sapiens; HeLa wt or HeLa TRPML1 KO cells, treated for 2 hrs; ratio of nuclear to ring-region TFEB intensity
pEC50: −log10 of the molar value.
quantity_name: pEC50

Task: Quickly give me recorded pEC50 for `CC1(C)OCc2cc(S(=O)(=O)N3CC4(CCCC4)c4ccccc43)ccc21`
Output: 5.10 to 5.70

Task: Quickly give me recorded pEC50 for `O=S(=O)(Cc1ccccc1)N1CC2(CCN(CC(F)(F)F)CC2)c2ccccc21`
Output: ≤ 5.00

Task: Quickly give me recorded pEC50 for `O=S(=O)(Cc1cccc(Cl)c1)N1CC2(CCCC2)c2ccccc21`
Output: 5.10 to 5.70

Task: Quickly give me recorded pEC50 for `O=C(OCc1ccccc1)N1CCC2(CC1)CN(S(=O)(=O)c1ccc(C(F)F)cc1)c1ccc(F)cc12`
Output: ≥ 5.70
